Assay: Plasma pharmacokinetics of TP-0903 and metabolites (LC-MS/MS, noncompartmental analysis)
Assay type: in vivo, human
Conditions: human, plasma, oral, 37 mg, TP-0903 dose 37 mg, Day 1 of course 1, plasma, median (range)
propertyLabel: Cmax (ng/mL)
Report as a plain number; the unit ng/mL is understood.

Ask: May I ask what Cmax has been recorded for `CN1CCN(Cc2ccc(Nc3ncc(Cl)c(Nc4ccccc4S(=O)(=O)N(C)C)n3)cc2)CC1.O=C(O)C(O)C(O)C(=O)O.O=C(O)C(O)C(O)C(=O)O` ?
Reply: 3.3

###

Experiment: Plasma pharmacokinetics of TP-0903 and metabolites (LC-MS/MS, noncompartmental analysis)
Assay type: in vivo, human
Settings: human, plasma, oral, 37 mg, TP-0903 dose 37 mg, Day 1 of course 1, plasma, median (range), N=10; read-out: AUC0-24h
propertyLabel: AUC(0-t) (ng·h/mL)
Numbers only here, please. The scale is ng·h/mL.

Ask: Any idea what its AUC(0-t) is? The compound is `CN1CCN(Cc2ccc(Nc3ncc(Cl)c(Nc4ccccc4S(=O)(=O)N(C)C)n3)cc2)CC1.O=C(O)C(O)C(O)C(=O)O.O=C(O)C(O)C(O)C(=O)O`
Reply: 36
